- tgt: Regulator of G-protein signaling 19 (Homo sapiens)
- experiment_description: small molecules altering RGS protein interactions with GNAO1 – biochemical, multiplexed beads, flow cytometry, RGS4/7/8/16/19, primary screen (AID 1504);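 also: fluorescently labeled Galpha-o bound to GDP with aluminium fluoride binding biotinylated RGS beads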
- condition_notes: multiplexed bead flow cytometry, measured here: RGS19 interaction, at 10 µM
Some of the results follow.
reported_endpoint: RGS19–Galpha-o binding response (%)
Form entry: value (%) — number only.

Below: 4 compounds and their reported RGS19–Galpha-o binding response.
CCC(=O)N1CCC(C(N)=O)(N2CCCCC2)CC1	90.3
CCCn1c(C)cc(C(=O)COC(=O)c2c(C)nn(-c3ccccc3)c2C)c1C	99.6
O=C1CCC(=O)N(O)CCCCCNC(=O)CCC(=O)N(O)CCCCCNC(=O)CCC(=O)N(O)CCCCCN1	4280
COC(=O)c1ccccc1OCC(=O)N1CCN(c2ccc(Cl)cc2)CC1	7560

Sample `O=C(Nc1ccccc1)c1cc2ccccc2[nH]1` — what was its RGS19–Galpha-o binding response?
-785

And for `CCC(=O)Nc1c(S(=O)(=O)c2ccccc2)c2nc3ccccc3nc2n1Cc1ccccc1` ?
285

What would you report for `CCOc1cc(C(=O)N2CCc3cc(OC)c(OC)cc3C2)ccc1OC(F)F` ?
-289

Lookup `CN(CC(=O)NC1CCCCC1)S(=O)(=O)c1cccc2cccnc12`
114

Also CCOC(=O)C1Sc2[nH]c(=O)sc2C(c2ccc(Cl)cc2)C1C(=O)OCC (centres undefined) , if possible.
128
